FYI, the data here is from PubChem BioAssay (NCI).

Tested on: MOLT-4 leukemia
Assay text: NCI tumour cell line growth inhibition, 48 h; in the data active = GI50 below about 0.43 µM; inactive = the rest
Your answer must be one of the following: yes (1) (active), no (0) (inactive)

Problem: Dear all, I need the recorded test outcome for C[As](C)Sc1ccnc(S[As](C)C)n1 , thank you.
Result: no (0)

Problem: Dear all, I need the recorded test outcome for NC(=O)c1nnn(Cc2cc(Cl)c(C(=O)c3ccc(Cl)cc3)c(Cl)c2)c1N , thank you.
Result: no (0)

Problem: Dear all, I need the recorded test outcome for CC1(C)Cc2cccc(OCC(O)CN3CCN(c4ccc(F)cc4)CC3)c2O1 (stereo not given) , thank you.
Result: no (0)

Problem: Dear all, I need the recorded test outcome for Cn1cc(C2=C(c3c4n(c5ccccc35)CC(CN)C4)C(=O)NC2=O)c2ccccc21 (stereo not given) , thank you.
Result: no (0)

Problem: Dear all, I need the recorded test outcome for O=C1Nc2ccccc2C1(c1ccc(O)c(F)c1)c1ccc(O)c(F)c1 , thank you.
Result: no (0)

Problem: Dear all, I need the recorded test outcome for CC1(C)CC(=O)C2=C(C1)NC(SSC1=C(C#N)C(c3ccc(Br)cc3)C3=C(CC(C)(C)CC3=O)N1)=C(C#N)C2c1ccc(Br)cc1 (stereo not given) , thank you.
Result: no (0)

Problem: Dear all, I need the recorded test outcome for CN(C)c1ccc(/C=C(\C#N)c2cc3ccccc3n2C)cc1 , thank you.
Result: yes (1)

Problem: Dear all, I need the recorded test outcome for O=C(Nc1ncc(Cc2ccccc2)s1)c1ccc2c(c1)OCCO2 , thank you.
Result: yes (1)

Problem: Dear all, I need the recorded test outcome for CCCCCCCCCCCCOC1C(CNC(=O)C2OC3OC(C)(C)OC3C2NC(=O)CN2CCN(c3ccccn3)CC2)OC2OC(C)(C)OC21 (stereo not given) , thank you.
Result: no (0)

Problem: Dear all, I need the recorded test outcome for O=S(=O)(O)c1ccc(Cl)cc1.[Cd] , thank you.
Result: no (0)

###

Tested on: SF-295 CNS
Assay text: NCI tumour cell line growth inhibition, 48 h
Measurement kind: TGI

Problem: Given the entry CCCn1cc(C2=C(c3cn(C)c4ccccc34)C(=O)NC2=O)c2ccccc21 , report its measured TGI.
Result: 3.15 µM

Problem: Given the entry O=S(=O)(O)c1ccc(Cl)cc1.[Cd] , report its measured TGI.
Result: > 100 µM

Problem: Given the entry COC(=O)c1cc(C)n2c1CS[C@@H]2c1ccccc1 , report its measured TGI.
Result: > 100 µM

Problem: Given the entry COc1ccc2nc3cccc([N+](=O)[O-])c3c(NCCN(CCO)CCO)c2c1 , report its measured TGI.
Result: 0.337 µM

Problem: Given the entry COC(=O)CSc1ccccc1 , report its measured TGI.
Result: > 100 µM

Problem: Given the entry COc1cc(COC(=O)N2CCCCC2C(=O)O)c([N+](=O)[O-])cc1OC (stereo unspecified) , report its measured TGI.
Result: > 100 µM

###

Tested on: CCRF-CEM leukemia
Assay text: NCI tumour cell line growth inhibition, 48 h; in the data active = GI50 below about 0.43 µM; inactive = the rest
Your answer must be one of the following: active, inactive

Problem: Dear all, I need the recorded test outcome for O=C(CCCCCCC(=O)N/N=C/c1ccc(N(c2ccccc2)c2ccccc2)cc1)NO , thank you.
Result: inactive

Problem: Dear all, I need the recorded test outcome for C=C1C(=O)O[C@H]2[C@H]1CC/C(COC(=O)/C=C\C(=O)NCc1ccc(Cn3c(=O)sn(-c4ccc(OC)cc4)c3=O)cc1)=C\CC[C@@]1(C)O[C@@H]21 , thank you.
Result: active

Problem: Dear all, I need the recorded test outcome for Cc1ccc(Cl)cc1Nc1nc(C(F)(F)F)ccc1C(=O)N/N=C/c1c(Cl)cccc1Cl , thank you.
Result: active

Problem: Dear all, I need the recorded test outcome for C[As](C)Sc1ccnc(S[As](C)C)n1 , thank you.
Result: inactive

Problem: Dear all, I need the recorded test outcome for CN(C)CCCNC(=O)c1cc(NC(=O)CCNC(=O)c2ccc3c(c2)C(=O)c2ccccc2C3=O)cn1C , thank you.
Result: inactive

Problem: Dear all, I need the recorded test outcome for CCCCCCNC(=O)c1cc(C#Cc2cc(OC)ccc2OC)ccc1OC , thank you.
Result: inactive

Problem: Dear all, I need the recorded test outcome for COc1ccc(S(=O)(=O)N2CCN(C(=O)OCc3ccccc3)CC2C(=O)NO)cc1 (stereo unspecified) , thank you.
Result: inactive

Problem: Dear all, I need the recorded test outcome for CCCCCCCCCCCCOC1C(CNC(=O)C2OC3OC(C)(C)OC3C2NC(=O)CN2CCN(c3ccccn3)CC2)OC2OC(C)(C)OC21 (stereo unspecified) , thank you.
Result: inactive

Problem: Dear all, I need the recorded test outcome for O=S(=O)(O)c1ccc(Cl)cc1.[Cd] , thank you.
Result: inactive

Problem: Dear all, I need the recorded test outcome for CCCN(CCC)c1ccc(C=O)cc1 , thank you.
Result: inactive

Problem: Dear all, I need the recorded test outcome for NC(=O)c1nnn(Cc2cc(Cl)c(C(=O)c3ccc(Cl)cc3)c(Cl)c2)c1N , thank you.
Result: inactive

###

Test system: MOLT-4 leukemia
Assay text: NCI tumour cell line growth inhibition, 48 h
Measurement kind: TGI

Problem: GET /values?readout=TGI&system=MOLT-4 leukemia&item= COC(=O)CSc1ccccc1
Result: > 100 µM

Problem: GET /values?readout=TGI&system=MOLT-4 leukemia&item= COc1cc(C2c3cc4c(cc3OC3(O)COC(=O)C23)OCO4)cc(OC)c1OC (centres undefined)
Result: > 100 µM

Problem: GET /values?readout=TGI&system=MOLT-4 leukemia&item= Cc1ccc(S(=O)(=O)NC(=O)C2(Br)S(=O)(=O)OCCOS2(=O)=O)cc1
Result: > 100 µM

Problem: GET /values?readout=TGI&system=MOLT-4 leukemia&item= CCOCCc1c(O)nc(SC)[nH]c1=O
Result: > 100 µM

Problem: GET /values?readout=TGI&system=MOLT-4 leukemia&item= COc1ccc2c(c1)CCc1cnn(C3OC(COC(C)=O)C(OC(C)=O)C(OC(C)=O)C3OC(C)=O)c1-2 (centres undefined)
Result: 74.3 µM

Problem: GET /values?readout=TGI&system=MOLT-4 leukemia&item= NC(=O)NC(CC(=O)O)C(=O)O (centres undefined)
Result: > 100 µM

Problem: GET /values?readout=TGI&system=MOLT-4 leukemia&item= O=C(CCc1nnc(-c2c(Cl)cccc2Cl)o1)c1nc2ccccc2[nH]1
Result: 25.8 µM

Problem: GET /values?readout=TGI&system=MOLT-4 leukemia&item= O=C(Nc1ccc(Cl)c(Cl)c1)C(=O)Nn1c(=S)[nH]c2ccccc2c1=O
Result: > 100 µM

Problem: GET /values?readout=TGI&system=MOLT-4 leukemia&item= CCOC(=O)c1c[nH]c2c(OCc3ccccc3)c3ccccc3c(O)c2c1=O
Result: > 100 µM

Problem: GET /values?readout=TGI&system=MOLT-4 leukemia&item= COc1c(C(=O)/C(=N/Nc2ccccc2)C(C)=O)c(O)c(OC)c2occc12
Result: > 100 µM

Problem: GET /values?readout=TGI&system=MOLT-4 leukemia&item= CCCCCCNC(=O)c1cc(C#Cc2cc(OC)ccc2OC)ccc1OC
Result: > 100 µM

Problem: GET /values?readout=TGI&system=MOLT-4 leukemia&item= c1ccc2c(c1)ccc1ncccc12
Result: > 100 µM

Problem: GET /values?readout=TGI&system=MOLT-4 leukemia&item= Nc1ccc2cc(S(=O)(=O)O)cc(O)c2c1N=Nc1ccc(NC(=O)Nc2ccc(N=Nc3c(N)ccc4cc(S(=O)(=O)O)cc(O)c34)c(S(=O)(=O)O)c2)cc1S(=O)(=O)O
Result: > 100 µM

Problem: GET /values?readout=TGI&system=MOLT-4 leukemia&item= COc1cc(C2SCC(=O)N2c2ccc(-c3ccc(-n4c(-c5ccccc5)nc5ccccc5c4=O)cc3)cc2)ccc1O (centres undefined)
Result: > 100 µM

Problem: GET /values?readout=TGI&system=MOLT-4 leukemia&item= CCCN(CCC)c1ccc(C=O)cc1
Result: > 100 µM

Problem: GET /values?readout=TGI&system=MOLT-4 leukemia&item= COc1cc(C2c3cc4c(cc3[C@H](NC(=O)c3cccs3)C3COC(=O)[C@H]23)OCO4)cc(OC)c1OC (some centres undefined)
Result: 24.5 µM

Problem: GET /values?readout=TGI&system=MOLT-4 leukemia&item= O=c1oc2c3ccc4ccccc4c3n(CCN3CCOCC3)c2c2ccccc12
Result: 18.5 µM

Problem: GET /values?readout=TGI&system=MOLT-4 leukemia&item= COC(=O)C(/C(=N/N)C(=O)Nc1ccc(C)c(C)c1)c1nc2ccc(Cl)cc2[nH]c1=O (centres undefined)
Result: > 100 µM

Problem: GET /values?readout=TGI&system=MOLT-4 leukemia&item= SC[C@@H]1COC[C@H](CS)S1
Result: > 100 µM

Problem: GET /values?readout=TGI&system=MOLT-4 leukemia&item= Nc1ncnc2c1c(-c1cccc(OCc3ccccc3)c1)cn2C1CC(CN2CCCC2)C1 (centres undefined)
Result: 8.57 µM

Problem: GET /values?readout=TGI&system=MOLT-4 leukemia&item= Cc1ccccc1N=Cc1ccc(N(CCC#N)S(=O)(=O)c2ccccc2)cc1
Result: > 100 µM

Problem: GET /values?readout=TGI&system=MOLT-4 leukemia&item= CC(C)=CCC/C(C)=C/CC/C(C)=C/CC/C=C(\C)CC/C=C(\C)CCC1SC1(C)C (centres undefined)
Result: > 100 µM

Problem: GET /values?readout=TGI&system=MOLT-4 leukemia&item= Cc1ccc(-c2c(C#N)c(-c3ccc([N+](=O)[O-])cc3)c(C#N)c(=O)n2NS(=O)(=O)c2ccc(C)cc2)cc1
Result: 50.1 µM

Problem: GET /values?readout=TGI&system=MOLT-4 leukemia&item= CC(Oc1ccccc1)C(=O)NN (centres undefined)
Result: > 100 µM

Problem: GET /values?readout=TGI&system=MOLT-4 leukemia&item= C/C(=N\Nc1ccc2ccccc2n1)c1ccccc1O
Result: > 58.5 µM

Problem: GET /values?readout=TGI&system=MOLT-4 leukemia&item= O=c1cc2n(c(=O)[nH]1)C1OC(C(O)C1O)[C@H]2CCO (some centres undefined)
Result: > 100 µM

Problem: GET /values?readout=TGI&system=MOLT-4 leukemia&item= CN(C)CCSC(=Nc1ccccc1)N1C=COC=C1
Result: > 100 µM

Problem: GET /values?readout=TGI&system=MOLT-4 leukemia&item= Cc1nc2c(O)cccc2c(=O)[nH]1
Result: > 1000 µM

Problem: GET /values?readout=TGI&system=MOLT-4 leukemia&item= Cc1cc(=O)oc2c(CNC(C)C(=O)O)c(O)ccc12 (centres undefined)
Result: > 100 µM

Problem: GET /values?readout=TGI&system=MOLT-4 leukemia&item= CC(C)=CCC[C@](C)(O)[C@H]1CC[C@]2(C)[C@@H]1[C@H](O)C[C@@H]1[C@@]3(C)CC[C@H](O[C@@H]4O[C@H](CO)[C@@H](O)[C@H](O)[C@H]4O)C(C)(C)[C@@H]3CC[C@]12C
Result: 34.8 µM

Problem: GET /values?readout=TGI&system=MOLT-4 leukemia&item= COc1ccc2c(CC(=O)O)cc(=O)oc2c1
Result: > 100 µM

Problem: GET /values?readout=TGI&system=MOLT-4 leukemia&item= COc1cc(C(=O)NC2CCN(C)CC2)ccc1Nc1ncc2c(n1)N(C1CCCC1)CC(F)(F)C(=O)N2C
Result: 1.79 µM

Problem: GET /values?readout=TGI&system=MOLT-4 leukemia&item= C[C@H](CCC(=O)O[C@@H]1CC[C@@]2(C)C(CC[C@H]3[C@@H]4CC[C@H]([C@H](C)CCc5nc6ccccc6[nH]5)[C@@]4(C)CC[C@@H]32)C1)[C@H]1CC[C@H]2[C@@H]3CCC4C[C@H](O)CC[C@]4(C)[C@H]3CC[C@]12C (some centres undefined)
Result: > 100 µM

Problem: GET /values?readout=TGI&system=MOLT-4 leukemia&item= CC(=O)Nc1ccc2c3c(cc(O)c2c1)N(C(=O)CCCC(=O)Nc1ccc2c4c(cc(O)c2c1)N(C(=O)OC(C)(C)C)CC4CCl)CC3CCl (centres undefined)
Result: 0.912 µM

Problem: GET /values?readout=TGI&system=MOLT-4 leukemia&item= Nc1nc(=O)n(C2CC(O)C(O)C(CO)O2)cc1F (centres undefined)
Result: > 100 µM

Problem: GET /values?readout=TGI&system=MOLT-4 leukemia&item= CC(=O)Oc1ccc2ccc(=O)oc2c1OC(C)=O
Result: > 100 µM

Problem: GET /values?readout=TGI&system=MOLT-4 leukemia&item= Cc1cccc2nc3n(c12)C(=O)c1ccccc1-3
Result: > 100 µM

Problem: GET /values?readout=TGI&system=MOLT-4 leukemia&item= O=C(O)CN(CC(=O)O)Cc1cc2c(cc1O)Oc1cc(O)c(CN(CC(=O)O)CC(=O)O)cc1C21OC(=O)c2ccccc21
Result: > 100 µM

Problem: GET /values?readout=TGI&system=MOLT-4 leukemia&item= COc1ccc(-c2nc(N)c(C#N)c3c2CCSc2ccc(C)cc2-3)cc1OC
Result: 25.1 µM
